This collection of values is drawn from the array DNA melting data of Ke et al. (doi:10.1101/2024.01.08.574731).

TEST_DETAILS: folding enthalpy; higher = less favourable; fluorescence melt of hairpins on a sequencing array, two-state fit
MEASUREMENT_CONTEXT: sodium 0.088 M
// folding enthalpy lookup, one value per entry

BIOSEQUENCE	folding enthalpy [kcal/mol]
GAGAGCACGAAAGTGCTC (((..(((....))))))	-7.79
GGAATCGAAAGATGTTCC ((((((....)))..)))	-8.43
GTTTTGACGAAAGTCAAC (((..(((....))))))	-11.5
GCCAGCCGAAAGGCCGGC (((.(((....))).)))	-27.4
GCTTACGGAAACATAAGC (((((.(....).)))))	-21.6
GGGCCCCGAAAGGGACCC (((.(((....))).)))	-26
